Source listed as ChEMBL document CHEMBL1795271.

Each entry below lists one item and its recorded MIC value.
# System: Enterococcus faecium
# measurement-protocol: Antibacterial activity against Enterococcus faecium ATCC 19434 after 16 to 24 hrs by twofold serial dilution method
# Type: functional
quantity: MIC (µg/mL)

{"columns": ["mol-smiles", "quantity", "number"],
 "data": [
  ["CC(=O)NC[C@H]1CN(c2ccc(N3CCOCC3)c(F)c2)C(=O)O1", "MIC", 2.5],
  ["COCCCCn1cnc2nc(NCc3ccc(Cl)c(Cl)c3)[nH]c(=O)c21", "MIC", 2.5],
  ["Oc1nc(NCc2ccc(Cl)c(Cl)c2)nc2ncn(CCCCN3CCOCC3)c12", "MIC", 10],
  ["COCCCCn1c(C)nc2cc(NCc3ccc(Cl)c(Cl)c3)[nH]c(=O)c21", "MIC", 80],
  ["CCc1cc(Nc2nc(O)c3c(ncn3CCCCO)n2)ccc1C", "MIC", 20]
]}
